# Test system: IL-2-induced STAT5 phosphorylation (JAK1/JAK3 pathway)
# Experiment summary: Human whole blood assay (hWBA), IL-2 stimulation, phospho-STAT5 on CD4+ cells
# Format: cell-based
# Measurement conditions: 5 different donors
pIC50: −log10 of the molar value.

# Molecule, pIC50
measured = [
    ("Nc1nc2cccc(-c3ccc(CN4CCS(=O)(=O)CC4)cc3)n2n1 [Formula I]", 4.71),
]

* * *

# Assayed system: Recombinant human JAK2 catalytic domain (Homo sapiens)
# Construct: amino acids 808-1132; catalog number PV4210; GST; purchased Invitrogen PV4210
# Sequence (O60674 808-1132): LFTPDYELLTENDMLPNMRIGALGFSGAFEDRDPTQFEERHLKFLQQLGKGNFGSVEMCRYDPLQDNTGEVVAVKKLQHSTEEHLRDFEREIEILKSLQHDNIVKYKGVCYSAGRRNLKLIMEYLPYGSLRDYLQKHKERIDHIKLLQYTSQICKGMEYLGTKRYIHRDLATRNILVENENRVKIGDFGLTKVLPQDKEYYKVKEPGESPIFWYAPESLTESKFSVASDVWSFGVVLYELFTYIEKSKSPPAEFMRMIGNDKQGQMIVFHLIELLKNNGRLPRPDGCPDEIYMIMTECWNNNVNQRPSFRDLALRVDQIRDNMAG
# Experiment summary: JAK2 assay polyGT substrate
# Assay type: biochemical
# Measurement conditions: average; read-out: IC50 (average)

# Smiles repr, Endpoint unit, IC50
data = [
    ("Nc1nc2cccc(-c3ccc(CN4CCS(=O)(=O)CC4)cc3)n2n1", "nM", 624),
]

* * *

# Experiment summary: Single dose pharmacokinetics in human
# Type: in vivo
# Measurement conditions: plasma, po; human; after Formula II 50 mg single dose, capsules; read-out: exposure (expressed as AUC)
Endpoint name: AUC (ng·h/mL)

# Smiles repr, Endpoint name, Endpoint unit, Numeric readout
data = [
    ("Nc1nc2cccc(-c3ccc(CN4CCS(=O)(=O)CC4)cc3)n2n1", "AUC", "ng·h/mL", 14600),
    ("O=C(Nc1nc2cccc(-c3ccc(CN4CCS(=O)(=O)CC4)cc3)n2n1)C1CC1", "AUC", "ng·h/mL", 735),
]

* * *

# Experiment summary: Single dose pharmacokinetics in animals, minipig
# Format: in vivo, Göttingen minipigs
# Measurement conditions: male, Göttingen, plasma, after Formula II 30 mg/kg oral, read-out: exposure (expressed as AUC)
Measured AUC accompanies every entry in the list below.

# Molecule, AUC [ng·h/mL]
rows = [
    ("O=C(Nc1nc2cccc(-c3ccc(CN4CCS(=O)(=O)CC4)cc3)n2n1)C1CC1 [Formula II]", 19100),
    ("Nc1nc2cccc(-c3ccc(CN4CCS(=O)(=O)CC4)cc3)n2n1 [Formula I]", 16700),
]

* * *

# Experiment summary: Single dose pharmacokinetics in animals, mouse
# Assay type: in vivo, CD1 mice
# Measurement conditions: male, CD1, plasma, oral, upon administration of Formula II, read-out: apparent terminal elimination half-life (converted)

# Compound, half-life
data = [
    ("Nc1nc2cccc(-c3ccc(CN4CCS(=O)(=O)CC4)cc3)n2n1 [Formula I]", "2.1 h"),
]

* * *

# Experiment summary: Repeated dose pharmacokinetics in human
# Format: in vivo
# Measurement conditions: plasma, po; human, steady state; Formula II 100 mg BID; read-out: Exposure (expressed as AUC)

# Smiles repr, AUC
rows = [
    ("O=C(Nc1nc2cccc(-c3ccc(CN4CCS(=O)(=O)CC4)cc3)n2n1)C1CC1", "2380 ng·h/mL"),
    ("Nc1nc2cccc(-c3ccc(CN4CCS(=O)(=O)CC4)cc3)n2n1", "41100 ng·h/mL"),
]

* * *

Measured AUC accompanies every entry in the list below.
# Experiment summary: Single dose pharmacokinetics in human
# Type: in vivo
# Measurement conditions: plasma, po; human; after Formula II 25 mg single dose, capsules; read-out: exposure (expressed as AUC)
# Procedure: Serial blood samples were collected over 72 h to determine plasma concentrations of the compounds according to Formula II and Formula I using a validated liquid chromatography-mass spectrometry/mass spectrometry (LC-MS/MS) method with a limit of quantification of 1.00 ng/mL. PK parameters were assessed using a statistical analysis package (WinNonLin (Pharsight, Sunnyvale, Calif.: CA 94086, USA). […]
Endpoint name: AUC (µg·h/mL)

# Smiles repr, Numeric readout
measured = [
    ("Nc1nc2cccc(-c3ccc(CN4CCS(=O)(=O)CC4)cc3)n2n1", 7.22),
    ("O=C(Nc1nc2cccc(-c3ccc(CN4CCS(=O)(=O)CC4)cc3)n2n1)C1CC1", 0.331),
]
